System: Plasmodium berghei
Assay: Screen against P. berghei liver stage (PbLuc), transformed with Luciferase, at 10uM
Assay type: functional, HepG2
Settings: tested at 10 uM
Screen size: about 69,000 compounds; about 8,600 (12%) showed an effect of 50% or more. This is one part of a sample in which strong results are shown more often than they occur.
T if INHIBITION is below 30%. F if not; exact matches included in F.

Known results for compounds:
{"Compound": "COc1ccc2nc(CCNC(=O)c3cc(CC(C)C)no3)[nH]c2c1", "Category": "F"}
{"Compound": "COc1ccc(COCC(O)CNC(=O)c2cc(C)no2)cc1 (stereo not given)", "Category": "T"}
{"Compound": "CN(Cc1ccccn1)C(CO)c1cccc(Br)c1 (stereo not given)", "Category": "F"}
{"Compound": "CNC(=O)C1CCN(CC(=O)Nc2cc(C(C)C)no2)CC1", "Category": "F"}
{"Compound": "CC(C)OCCCN(Cc1ccncc1)Cc1cccc(F)c1", "Category": "F"}

Proceed to the following item.
Ask: Strictly below 30%: is that where INHIBITION of CC(C)c1cc(NC(=O)CNC2CCc3ncnn3C2)on1 (stereo not given) sits?
Reply: F

* * *

System: Plasmodium berghei
Test: Screen against P. berghei liver stage (PbLuc), transformed with Luciferase, at 10uM
Type: functional, HepG2
Settings: tested at 10 uM
Screen size: about 69,000 compounds; about 8,600 (12%) showed an effect of 50% or more. The entries come from a sample that favours strong results as a whole.
Readout Kind: INHIBITION (%)
Expressed in %, but write only the number.

Before answering, review these 3 worked examples.
{"Molecule": "CC(=O)N1Cc2ccccc2C[C@H]1C(=O)N(C)Cc1ccccn1", "INHIBITION / %": 40.7}
{"Molecule": "COCCn1cc(NC(=O)NC(C)CCc2ccccc2)ccc1=O (centres undefined)", "INHIBITION / %": 28.7}
{"Molecule": "CCCn1cc(NC(=O)c2ccc(N(C)CC)cc2)ccc1=O", "INHIBITION / %": 46.6}

Consider the additional molecule presented here.
Ask: Suppose we examine the molecule COc1ccc(-n2cc3[nH]c(=O)n(Cc4cccc(F)c4)n3c2=O)cc1 ; what INHIBITION value has been reported?
Reply: -67

* * *

Tested on: Plasmodium berghei
Assay: Screen against P. berghei liver stage (PbLuc), transformed with Luciferase, at 10uM
Format: functional, HepG2
Settings: tested at 10 uM
Out of some 69,000 compounds screened, about 8,600 (12%) showed an effect of 50% or more. What follows is part of a selection rich in strong results, with near analogues and random picks from the rest.
The reader will find reported INHIBITION values listed item by item below.
Expressed in %, but write only the number.

{"Compound": "Fc1ccc(Cc2cccc(C3CCN(C4CCOCC4)CC3)n2)cc1", "Readout Kind": "INHIBITION", "Observed Measurement": 72.3}
{"Compound": "COCCNc1ccc(CNCc2cnc3nc(C)cc(C)n23)cc1", "Readout Kind": "INHIBITION", "Observed Measurement": -45.7}

Ask: Suppose we examine the compound Cc1ncc(CNC(C)(C)CO)c2cc(C(=O)c3ccc(Br)cc3)oc12 ; what INHIBITION value has been reported?
Reply: 65.3

Ask: Follow-up entry: CCc1c(C)nn(CCNC(=O)c2cc(C3CC3)n[nH]2)c1C
Reply: -40.7

Ask: Follow-up entry: CC(C)C(=O)Nc1cc(C(=O)NC2CC(C)(C)NC(C)(C)C2)nn1C
Reply: 44.6

Ask: Follow-up entry: O=C(O)CN1CCC(C(F)(F)F)CC1
Reply: 2.4
